// values below are reported pIC50
- Test system: KRAS patient-derived spheroids with HUVEC/MSC, viability
- test: Anticancer human tumor 323965-272-R-J2-PDC patient-derived pancreatic carcinoma cell line growth inhibition [KRAS2]
- run parameters: curve of first compound; second compound 0.316 µM
Conceptually, pIC50 converts a concentration in mol/L into minus its log10.

1) CC(C)n1nc(-c2ccc3oc(N)nc3c2)c2c(N)ncnc21 + CNCc1ccccc1-c1csc(C(C)Nc2nc(C)nc3cc(OC)c(OC)cc23)c1	8.70

Next, consider the following compound.
QUERY: Which pIC50 is listed for CC(C)n1nc(-c2ccc3oc(N)nc3c2)c2c(N)ncnc21 + COc1cc2nc(C)nc(NC(C)c3cc(N)cc(C(F)(F)F)c3)c2cc1OC1CCOC1 ?
RESULT: 9.02

====

- Tested on: KRAS patient-derived spheroids with HUVEC/MSC, viability
- test: Anticancer human tumor 323965-272-R-J2-PDC cell line growth inhibition [KRAS2];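 also: spheroids exposed to agents for 7 days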;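 as to viability, T/C: 100% = DMSO vehicle control viability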
- run parameters: second compound 3.16 µM; first compound 3.16 µM; stronger effect = lower value
measurement name: viability, T/C

# count of solved cases: 2
1) COc1cc(Nc2ncc3c(n2)-c2ccc(Cl)cc2C(c2c(F)cccc2OC)=NC3)ccc1C(=O)O + COc1cc2nc(C)nc(NC(C)c3cc(N)cc(C(F)(F)F)c3)c2cc1OC1CCOC1	44.3%
2) COC(=O)c1ccc2c(C(=Nc3ccc(N(C)C(=O)CN4CCN(C)CC4)cc3)c3ccccc3)c(O)[nH]c2c1 + COc1cc2nc(C)nc(NC(C)c3cc(N)cc(C(F)(F)F)c3)c2cc1OC1CCOC1	79.3%

QUERY: For the molecule O=C(c1cc(Cc2n[nH]c(=O)c3ccccc23)ccc1F)N1CCN(C(=O)C2CC2)CC1 + C=CC(=O)N1CCN(c2nc(OCC3CCCN3C)nc3c2CCN(c2cccc4cccc(C)c24)C3)CC1CC#N , what viability, T/C is on record?
RESULT: 34.7%

QUERY: Quick one: viability, T/C of COc1cc2nccc(Oc3ccc(NC(=O)C4(C(=O)Nc5ccc(F)cc5)CC4)cc3)c2cc1OC + CC1OCC2(CCN(c3cnc(Sc4ccnc(N)c4Cl)c(N)n3)CC2)C1N ?
RESULT: 35.2%

QUERY: Give the measured viability, T/C of COc1cc(Nc2ncc3c(n2)-c2ccc(Cl)cc2C(c2c(F)cccc2OC)=NC3)ccc1C(=O)O + C=CC(=O)N1CCN(c2nc(=O)n(-c3c(C)ccnc3C(C)C)c3nc(-c4c(O)cccc4F)c(F)cc23)C(C)C1 .
RESULT: 34.7%

====

- Tested on: KRAS patient-derived spheroids with HUVEC/MSC, viability
- test: Anticancer human tumor 323965-272-R-J2-PDC cell line growth inhibition [KRAS2];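 also: spheroids exposed to agents for 7 days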
- run parameters: curve of first compound; second compound 0.316 µM
- Excerpt: Multicellular complex tumor spheroid response to RAS pathway inhibitors in combination with a targeted agents in patient-derived cell lines with oncogenic KRAS variants from multiple cancer types A high-throughput screen of multi-cell type tumor spheroids was designed to identify active combinations of targeted small molecules and KRAS pathway inhibitors. […] Compounds. […] If the clinical Cmax for an agent had not been determined, the highest concentration tested was 10 microM. […]
Consider the cut-off 0.3 µM. If the recorded IC50 is strictly smaller, the label is 1; if not, the label is 0.

Some solved entries appear below for comparison.
1) CC(C)n1nc(-c2ccc3oc(N)nc3c2)c2c(N)ncnc21 + C=CC(=O)N1CCN(c2nc(=O)n(-c3c(C)ccnc3C(C)C)c3nc(-c4c(O)cccc4F)c(F)cc23)C(C)C1	1
2) COc1cc(Nc2ncc3c(n2)-c2ccc(Cl)cc2C(c2c(F)cccc2OC)=NC3)ccc1C(=O)O + CNCc1ccccc1-c1csc(C(C)Nc2nc(C)nc3cc(OC)c(OC)cc23)c1	1
3) CC1COCCN1c1cc(-c2ccnn2C)c2ccnc(-c3ccn[nH]3)c2n1 (stereo not given) + CNCc1ccccc1-c1csc(C(C)Nc2nc(C)nc3cc(OC)c(OC)cc23)c1	1
4) CC1(C)CCC(CN2CCN(c3ccc(C(=O)NS(=O)(=O)c4ccc(NCC5CCOCC5)c([N+](=O)[O-])c4)c(Oc4cnc5[nH]ccc5c4)c3)CC2)=C(c2ccc(Cl)cc2)C1 + C=CC(=O)N1CCN(c2nc(OCC3CCCN3C)nc3c2CCN(c2cccc4cccc(C)c24)C3)CC1CC#N	0
5) COc1cc(Nc2ncc3c(n2)-c2ccc(Cl)cc2C(c2c(F)cccc2OC)=NC3)ccc1C(=O)O + C=CC(=O)N1CCN(c2nc(OCC3CCCN3C)nc3c2CCN(c2cccc4cccc(C)c24)C3)CC1CC#N	1
6) COC(=O)c1ccc2c(C(=Nc3ccc(N(C)C(=O)CN4CCN(C)CC4)cc3)c3ccccc3)c(O)[nH]c2c1 + CC1OCC2(CCN(c3cnc(Sc4ccnc(N)c4Cl)c(N)n3)CC2)C1N	0
7) CCN1CCN(Cc2ccc(Nc3ncc(F)c(-c4cc(F)c5nc(C)n(C(C)C)c5c4)n3)nc2)CC1 + CNCc1ccccc1-c1csc(C(C)Nc2nc(C)nc3cc(OC)c(OC)cc23)c1	0
8) O=C(c1cc(Cc2n[nH]c(=O)c3ccccc23)ccc1F)N1CCN(C(=O)C2CC2)CC1 + C=CC(=O)N1CCN(c2nc(OCC3CCCN3C)nc3c2CCN(c2cccc4cccc(C)c24)C3)CC1CC#N	0

QUERY: Here's an entry: CC(C)n1nc(-c2ccc3oc(N)nc3c2)c2c(N)ncnc21 + CC1OCC2(CCN(c3cnc(Sc4ccnc(N)c4Cl)c(N)n3)CC2)C1N . Is its IC50 below 0.3 µM?
RESULT: 1

QUERY: Hi there! Is IC50 for CN(C)C/C=C/C(=O)Nc1cc2c(Nc3ccc(F)c(Cl)c3)ncnc2cc1O[C@H]1CCOC1 + C=CC(=O)N1CCN(c2nc(=O)n(-c3c(C)ccnc3C(C)C)c3nc(-c4c(O)cccc4F)c(F)cc23)C(C)C1 below 0.3 µM, do you know?
RESULT: 1

QUERY: Hello, is IC50 of the following compound strictly smaller than 0.3 µM? CC(C)NCC(C(=O)N1CCN(c2ncnc3c2C(C)CC3O)CC1)c1ccc(Cl)cc1 (stereo not given) + CNCc1ccccc1-c1csc(C(C)Nc2nc(C)nc3cc(OC)c(OC)cc23)c1
RESULT: 0

QUERY: Is 0.3 µM strictly greater than the compound's reported IC50? compound: Cn1nccc1Nc1nccc(-c2cc3c(s2)C(C)(C)N(CCN2CCOCC2)C3=O)n1 + C=CC(=O)N1CCN(c2nc(=O)n(-c3c(C)ccnc3C(C)C)c3nc(-c4c(O)cccc4F)c(F)cc23)C(C)C1
RESULT: 1

QUERY: Determine if CC1OCC2(CCN(c3cnc(Sc4ccnc(N)c4Cl)c(N)n3)CC2)C1N (stereo not given) + CNCc1ccccc1-c1csc(C(C)Nc2nc(C)nc3cc(OC)c(OC)cc23)c1 shows IC50 strictly lower than 0.3 µM.
RESULT: 1

QUERY: Please let me know if COC(=O)c1ccc2c(C(=Nc3ccc(N(C)C(=O)CN4CCN(C)CC4)cc3)c3ccccc3)c(O)[nH]c2c1 + CNCc1ccccc1-c1csc(C(C)Nc2nc(C)nc3cc(OC)c(OC)cc23)c1 shows IC50 below 0.3 µM.
RESULT: 0

QUERY: Report whether reported IC50 is lower than 0.3 µM (strictly) for CC1COCCN1c1cc(-c2ccnn2C)c2ccnc(-c3ccn[nH]3)c2n1 (stereo not given) + COc1cc2nc(C)nc(NC(C)c3cc(N)cc(C(F)(F)F)c3)c2cc1OC1CCOC1
RESULT: 1

QUERY: Does this compound meet the criterion IC50 < 0.3 µM? Cn1nccc1Nc1nccc(-c2cc3c(s2)C(C)(C)N(CCN2CCOCC2)C3=O)n1 + COc1cc2nc(C)nc(NC(C)c3cc(N)cc(C(F)(F)F)c3)c2cc1OC1CCOC1
RESULT: 1

QUERY: Given the entry COc1cc2nccc(Oc3ccc(NC(=O)C4(C(=O)Nc5ccc(F)cc5)CC4)cc3)c2cc1OC + C=CC(=O)N1CCN(c2nc(OCC3CCCN3C)nc3c2CCN(c2cccc4cccc(C)c24)C3)CC1CC#N , would its reported IC50 be below 0.3 µM?
RESULT: 0

QUERY: API: query returns whether the compound falls strictly under 0.3 µM in IC50. Query: CC(C)NCC(C(=O)N1CCN(c2ncnc3c2C(C)CC3O)CC1)c1ccc(Cl)cc1 (stereo not given) + C=CC(=O)N1CCN(c2nc(OCC3CCCN3C)nc3c2CCN(c2cccc4cccc(C)c24)C3)CC1CC#N
RESULT: 1

====

- Test system: KRAS patient-derived spheroids with HUVEC/MSC, viability
- test: Anticancer human tumor 323965-272-R-J2-PDC cell line growth inhibition [KRAS2];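 also: spheroids exposed to agents for 7 days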;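 as to viability, T/C: 100% = DMSO vehicle control viability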
- run parameters: second compound 1 µM; first compound 3.16 µM; stronger effect = lower value
Labelling: viability, T/C reported below 20% becomes fulfilled; at or above becomes not fulfilled.

These recorded examples may help you get a feel for the data.
1. CC1(C)CCC(CN2CCN(c3ccc(C(=O)NS(=O)(=O)c4ccc(NCC5CCOCC5)c([N+](=O)[O-])c4)c(Oc4cnc5[nH]ccc5c4)c3)CC2)=C(c2ccc(Cl)cc2)C1 + C=CC(=O)N1CCN(c2nc(OCC3CCCN3C)nc3c2CCN(c2cccc4cccc(C)c24)C3)CC1CC#N	fulfilled
2. CC1OCC2(CCN(c3cnc(Sc4ccnc(N)c4Cl)c(N)n3)CC2)C1N (centres undefined) + C=CC(=O)N1CCN(c2nc(OCC3CCCN3C)nc3c2CCN(c2cccc4cccc(C)c24)C3)CC1CC#N	fulfilled
3. Cn1nccc1Nc1nccc(-c2cc3c(s2)C(C)(C)N(CCN2CCOCC2)C3=O)n1 + C=CC(=O)N1CCN(c2nc(OCC3CCCN3C)nc3c2CCN(c2cccc4cccc(C)c24)C3)CC1CC#N	not fulfilled
4. CC1COCCN1c1cc(-c2ccnn2C)c2ccnc(-c3ccn[nH]3)c2n1 (centres undefined) + C=CC(=O)N1CCN(c2nc(OCC3CCCN3C)nc3c2CCN(c2cccc4cccc(C)c24)C3)CC1CC#N	fulfilled
5. CC(=O)OC12COC1CC(O)C1(C)C(=O)C(O)C3=C(C)C(OC(=O)C(O)C(NC(=O)OC(C)(C)C)c4ccccc4)CC(O)(C(OC(=O)c4ccccc4)C21)C3(C)C (centres undefined) + COc1cc2nc(C)nc(NC(C)c3cc(N)cc(C(F)(F)F)c3)c2cc1OC1CCOC1	not fulfilled
6. CCNC(=O)CC1N=C(c2ccc(Cl)cc2)c2cc(OC)ccc2-n2c(C)nnc21 (centres undefined) + C=CC(=O)N1CCN(c2nc(OCC3CCCN3C)nc3c2CCN(c2cccc4cccc(C)c24)C3)CC1CC#N	not fulfilled
7. CC1OCC2(CCN(c3cnc(Sc4ccnc(N)c4Cl)c(N)n3)CC2)C1N (centres undefined) + CNCc1ccccc1-c1csc(C(C)Nc2nc(C)nc3cc(OC)c(OC)cc23)c1	not fulfilled
8. COc1cc(Nc2ncc3c(n2)-c2ccc(Cl)cc2C(c2c(F)cccc2OC)=NC3)ccc1C(=O)O + C=CC(=O)N1CCN(c2nc(=O)n(-c3c(C)ccnc3C(C)C)c3nc(-c4c(O)cccc4F)c(F)cc23)C(C)C1	not fulfilled
9. COc1cc2nccc(Oc3ccc(NC(=O)C4(C(=O)Nc5ccc(F)cc5)CC4)cc3)c2cc1OC + C=CC(=O)N1CCN(c2nc(=O)n(-c3c(C)ccnc3C(C)C)c3nc(-c4c(O)cccc4F)c(F)cc23)C(C)C1	not fulfilled
10. CC1(C)CCC(CN2CCN(c3ccc(C(=O)NS(=O)(=O)c4ccc(NCC5CCOCC5)c([N+](=O)[O-])c4)c(Oc4cnc5[nH]ccc5c4)c3)CC2)=C(c2ccc(Cl)cc2)C1 + CC1OCC2(CCN(c3cnc(Sc4ccnc(N)c4Cl)c(N)n3)CC2)C1N	fulfilled

QUERY: Consider CCNC(=O)CC1N=C(c2ccc(Cl)cc2)c2cc(OC)ccc2-n2c(C)nnc21 (centres undefined) + C=CC(=O)N1CCN(c2nc(=O)n(-c3c(C)ccnc3C(C)C)c3nc(-c4c(O)cccc4F)c(F)cc23)C(C)C1 . Does its viability, T/C lie strictly below 20%?
RESULT: not fulfilled

QUERY: Quick check: viability, T/C of CCNC(=O)CC1N=C(c2ccc(Cl)cc2)c2cc(OC)ccc2-n2c(C)nnc21 (centres undefined) + COc1cc2nc(C)nc(NC(C)c3cc(N)cc(C(F)(F)F)c3)c2cc1OC1CCOC1 under 20%?
RESULT: not fulfilled

QUERY: Criterion: viability, T/C strictly below 20%. Is it met by COC(=O)c1ccc2c(C(=Nc3ccc(N(C)C(=O)CN4CCN(C)CC4)cc3)c3ccccc3)c(O)[nH]c2c1 + C=CC(=O)N1CCN(c2nc(OCC3CCCN3C)nc3c2CCN(c2cccc4cccc(C)c24)C3)CC1CC#N ?
RESULT: not fulfilled
